Biological target: FGR (Homo sapiens)
Construct: purchased Nanosyn (contract screening)
Sequence (P09769 whole entry): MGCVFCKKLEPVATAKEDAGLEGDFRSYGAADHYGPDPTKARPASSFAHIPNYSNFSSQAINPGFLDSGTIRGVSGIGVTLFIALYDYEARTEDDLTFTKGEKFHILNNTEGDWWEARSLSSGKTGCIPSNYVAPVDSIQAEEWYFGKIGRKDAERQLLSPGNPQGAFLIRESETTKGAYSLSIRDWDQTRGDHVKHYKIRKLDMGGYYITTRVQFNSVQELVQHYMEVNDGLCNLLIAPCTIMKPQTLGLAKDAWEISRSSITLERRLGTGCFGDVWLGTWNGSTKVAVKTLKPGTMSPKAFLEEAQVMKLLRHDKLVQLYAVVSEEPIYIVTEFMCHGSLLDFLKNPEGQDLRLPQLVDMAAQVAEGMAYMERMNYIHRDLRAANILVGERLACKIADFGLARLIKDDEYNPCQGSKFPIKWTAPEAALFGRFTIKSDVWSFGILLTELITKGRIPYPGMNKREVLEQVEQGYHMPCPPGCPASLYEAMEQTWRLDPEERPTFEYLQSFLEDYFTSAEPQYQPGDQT
Assay: Kinase panel enzymatic inhibition assay (Nanosyn)
Assay type: biochemical
Settings: compound 5 μM; ATP at Km; 30-minute pre-incubation
value.type: inhibition at 5 µM

Observe how each entry below is paired with its result.
# molecule, inhibition at 5 µM
measured = [
    ("CCOC(=O)Nc1cn2nc(Nc3cc(NC(=O)c4cc([S+](C)[O-])n(-c5ccc(F)cc5)n4)ccc3C)ccc2n1 (centres unmarked)", "80 to 89%"),
    ("Cc1ccc(NC(=O)c2cc(S(C)(=O)=O)n(-c3ccc(F)cc3)n2)cc1Nc1ccc2ncn(C)c(=O)c2c1", "< 79%"),
    ("Cc1ccc(NC(=O)c2cc([S+](C)[O-])n(-c3ccc(F)cc3)n2)cc1-c1cc(N2CCOCC2)c(=O)n(C)c1 (centres unmarked)", "< 79%"),
    ("CNC(=O)c1cc(Oc2ccc(NC(=O)c3cc(S(C)(=O)=O)n(-c4ccc(F)cc4)n3)c(F)c2)ccn1", "< 79%"),
    ("Cc1ccc(NC(=O)c2cc(S(C)(=O)=O)n(-c3ccc(F)cc3)n2)cc1Nc1nccc(-c2cccnc2N)n1", "< 79%"),
    ("Cc1ccc(NC(=O)c2cc(S(C)(=O)=O)n(-c3ccc(F)cc3)n2)cc1-c1cc(N2CCOCC2)c(=O)n(C)c1", "< 79%"),
    ("Cc1ccc(NC(=O)c2cc(S(C)(=O)=O)n(-c3ccc(F)cc3)n2)cc1C#Cc1cnc2cccnn12", "80 to 89%"),
    ("Cc1ccc(NC(=O)c2cc([S+](C)[O-])n(-c3ccc(F)cc3)n2)cc1Nc1ccc2ncn(C)c(=O)c2c1 (centres unmarked)", "< 79%"),
]

QUERY: Given the molecule Cc1ccc(NC(=O)c2cc([S+](C)[O-])n(-c3ccc(F)cc3)n2)cc1C#Cc1cnc2cccnn12 (centres unmarked) , write its reported inhibition at 5 µM.
RESULT: 80 to 89%

QUERY: Supply inhibition at 5 µM value. Item: Cc1ccc(NC(=O)c2cc(S(C)(=O)=O)n(-c3ccc(F)cc3)n2)cc1-c1cc(OCCO)nc(N2CCOCC2)c1
RESULT: < 79%

QUERY: Output inhibition at 5 µM of CCOC(=O)Nc1cn2nc(Nc3cc(NC(=O)c4cc(S(C)(=O)=O)n(-c5ccc(F)cc5)n4)ccc3C)ccc2n1
RESULT: 80 to 89%

QUERY: Specify measured inhibition at 5 µM for CNC(=O)c1cc(Oc2ccc(F)c(NC(=O)c3cc([S+](C)[O-])n(-c4ccc(F)cc4)n3)c2)ccn1 (centres unmarked) .
RESULT: < 79%

QUERY: Supply inhibition at 5 µM value. Item: Cc1ccc(NC(=O)c2cc([S+](C)[O-])n(-c3ccc(F)cc3)n2)cc1-c1cc(OCCO)nc(N2CCOCC2)c1 (centres unmarked)
RESULT: < 79%

QUERY: Dear colleague, please send me the reported inhibition at 5 µM for CSc1cc(C(=O)Nc2cc(Oc3ccnc(C(=O)NC4CNC4)c3)ccc2F)nn1-c1ccc(F)cc1 when you can.
RESULT: < 79%

###

Target: CSK (Homo sapiens, UniProt P41240)
Construct: purchased Nanosyn (contract screening)
Sequence (P41240 whole entry): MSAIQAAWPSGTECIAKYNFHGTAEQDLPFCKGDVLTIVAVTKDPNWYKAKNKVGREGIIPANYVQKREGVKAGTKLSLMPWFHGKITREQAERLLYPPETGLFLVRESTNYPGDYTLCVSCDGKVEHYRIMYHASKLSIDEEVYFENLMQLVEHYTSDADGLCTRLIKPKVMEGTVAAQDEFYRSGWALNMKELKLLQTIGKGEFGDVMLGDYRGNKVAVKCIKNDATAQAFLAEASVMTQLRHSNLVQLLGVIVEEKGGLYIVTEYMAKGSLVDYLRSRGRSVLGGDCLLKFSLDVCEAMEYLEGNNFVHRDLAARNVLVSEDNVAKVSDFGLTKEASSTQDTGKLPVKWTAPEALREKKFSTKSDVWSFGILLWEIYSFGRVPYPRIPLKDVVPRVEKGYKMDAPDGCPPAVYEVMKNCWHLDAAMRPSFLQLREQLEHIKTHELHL
Experiment: Kinase panel enzymatic inhibition assay (Nanosyn)
Assay type: biochemical
Details: compound 5 μM; ATP at Km; 30-minute pre-incubation
value.type: inhibition at 5 µM

Check out these entries, answers already filled in.
# compound, experimental.target, test.value
records = [
    ("Cc1ccc(NC(=O)c2cc([S+](C)[O-])n(-c3ccc(F)cc3)n2)cc1-c1cc(OCCO)nc(N2CCOCC2)c1 (centres unmarked)", "CSK (Homo sapiens, UniProt P41240)", "< 79%"),
    ("Cc1ccc(NC(=O)c2cc([S+](C)[O-])n(-c3ccc(F)cc3)n2)cc1C#Cc1cnc2cccnn12 (centres unmarked)", "CSK (Homo sapiens, UniProt P41240)", "80 to 89%"),
    ("Cc1ccc(NC(=O)c2cc(S(C)(=O)=O)n(-c3ccc(F)cc3)n2)cc1C#Cc1cnc2cccnn12", "CSK (Homo sapiens, UniProt P41240)", "80 to 89%"),
    ("Cc1ccc(NC(=O)c2cc(S(C)(=O)=O)n(-c3ccc(F)cc3)n2)cc1Nc1nccc(-c2cccnc2N)n1", "CSK (Homo sapiens, UniProt P41240)", "< 79%"),
    ("CCOC(=O)Nc1cn2nc(Nc3cc(NC(=O)c4cc([S+](C)[O-])n(-c5ccc(F)cc5)n4)ccc3C)ccc2n1 (centres unmarked)", "CSK (Homo sapiens, UniProt P41240)", "< 79%"),
]

QUERY: In one line, give reported inhibition at 5 µM of the entry CCOC(=O)Nc1cn2nc(Nc3cc(NC(=O)c4cc(S(C)(=O)=O)n(-c5ccc(F)cc5)n4)ccc3C)ccc2n1 .
RESULT: 80 to 89%

QUERY: Report measured inhibition at 5 µM; entry is Cc1ccc(NC(=O)c2cc(S(C)(=O)=O)n(-c3ccc(F)cc3)n2)cc1-c1cc(OCCO)nc(N2CCOCC2)c1
RESULT: < 79%

QUERY: Determine its reported inhibition at 5 µM: CSc1cc(C(=O)Nc2cc(Oc3ccnc(C(=O)NC4CNC4)c3)ccc2F)nn1-c1ccc(F)cc1
RESULT: < 79%

QUERY: Tell me its inhibition at 5 µM given Cc1ccc(NC(=O)c2cc(S(C)(=O)=O)n(-c3ccc(F)cc3)n2)cc1Nc1ccc2ncn(C)c(=O)c2c1 as the entry.
RESULT: < 79%

QUERY: Complete the entry with inhibition at 5 µM for CNC(=O)c1cc(Oc2ccc(NC(=O)c3cc(S(C)(=O)=O)n(-c4ccc(F)cc4)n3)c(F)c2)ccn1
RESULT: < 79%

QUERY: Please give measured inhibition at 5 µM of the following entry: Cc1ccc(NC(=O)c2cc(S(C)(=O)=O)n(-c3ccc(F)cc3)n2)cc1-c1cc(N2CCOCC2)c(=O)n(C)c1
RESULT: < 79%

QUERY: Fill in reported inhibition at 5 µM for this entry: CNC(=O)c1cc(Oc2ccc(F)c(NC(=O)c3cc([S+](C)[O-])n(-c4ccc(F)cc4)n3)c2)ccn1 (centres unmarked)
RESULT: < 79%

QUERY: Give the reported inhibition at 5 µM for this compound. Cc1ccc(NC(=O)c2cc([S+](C)[O-])n(-c3ccc(F)cc3)n2)cc1Nc1ccc2ncn(C)c(=O)c2c1 (centres unmarked)
RESULT: < 79%

QUERY: State its inhibition at 5 µM: Cc1ccc(NC(=O)c2cc([S+](C)[O-])n(-c3ccc(F)cc3)n2)cc1-c1cc(N2CCOCC2)c(=O)n(C)c1 (centres unmarked)
RESULT: < 79%

Measured values drawn from patent US20240400577A1 for this set.
